- TARGET SYSTEM: AChE in SH-SY5Y cells (Homo sapiens)
- Sequence (P22303 32-614): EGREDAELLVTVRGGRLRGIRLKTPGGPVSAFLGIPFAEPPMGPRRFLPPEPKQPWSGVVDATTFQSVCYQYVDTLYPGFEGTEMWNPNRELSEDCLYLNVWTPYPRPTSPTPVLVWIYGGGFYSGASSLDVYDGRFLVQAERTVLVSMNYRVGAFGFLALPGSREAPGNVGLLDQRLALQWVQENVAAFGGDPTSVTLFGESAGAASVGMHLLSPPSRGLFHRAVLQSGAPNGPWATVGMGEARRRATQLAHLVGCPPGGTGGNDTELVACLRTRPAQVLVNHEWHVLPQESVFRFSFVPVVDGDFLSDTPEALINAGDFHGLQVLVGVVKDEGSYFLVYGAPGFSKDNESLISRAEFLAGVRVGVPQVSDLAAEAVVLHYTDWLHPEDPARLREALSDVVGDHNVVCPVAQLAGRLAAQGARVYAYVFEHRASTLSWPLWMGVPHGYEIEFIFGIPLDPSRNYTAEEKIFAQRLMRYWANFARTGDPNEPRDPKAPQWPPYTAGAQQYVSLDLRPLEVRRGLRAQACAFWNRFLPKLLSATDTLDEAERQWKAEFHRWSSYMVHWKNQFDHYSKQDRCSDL
- EXPERIMENTAL PROTOCOL: cell-based
Counter-ions that a name gives are not always drawn.
Collected CC-v2 (curve classes) values appear next to each entry.
Reply with the value as a number alone.

Example entries begin here.
COMPOUND	TARGET SYSTEM	CC-v2 (curve classes)
CN1C[C@H](C(=O)N[C@]2(C)O[C@@]3(O)[C@@H]4CCCN4C(=O)[C@H](Cc4ccccc4)N3C2=O)C=C2c3cccc4[nH]cc(c34)C[C@H]21 [Ergotamine D-tartrate]	AChE in SH-SY5Y cells (Homo sapiens)	-1.1
CNC(=O)O/N=C/C(C)(C)[S+](C)[O-] (stereo not shown) [Aldicarb sulfoxide]	AChE in SH-SY5Y cells (Homo sapiens)	-1.1
CCN(CC)CCOc1ccc2c(c1)C(=O)c1cc(OCCN(CC)CC)ccc1-2 [Tilorone, reference compound]	AChE in SH-SY5Y cells (Homo sapiens)	-1.1
CCOC(=O)COc1ccc2c(C)c(CCN(CC)CC)c(=O)oc2c1Cl.Cl [Cloricromen hydrochloride]	AChE in SH-SY5Y cells (Homo sapiens)	-2.1

Prompt line: Quick check: CC-v2 (curve classes) on AChE in SH-SY5Y cells (Homo sapiens), item CCOP(=S)(OCC)O/N=C(\C#N)c1ccccc1 ?
Response line: -2.1

Prompt line: Identify the measured CC-v2 (curve classes) of CCOP(=S)(OCC)SCSP(=S)(OCC)OCC for AChE in SH-SY5Y cells (Homo sapiens).
Response line: -2.1

Prompt line: Query CC-v2 (curve classes) on AChE in SH-SY5Y cells (Homo sapiens) for CNC(=O)Oc1cccc2c1OC(C)(C)C2
Response line: -1.1

Prompt line: Give the reported CC-v2 (curve classes) for CCOP(=S)(OCC)OC(Cl)C(Cl)(Cl)Cl (stereo not shown) (system: AChE in SH-SY5Y cells (Homo sapiens)).
Response line: -2.1

Prompt line: Form entry - test system: AChE in SH-SY5Y cells (Homo sapiens); read-out: CC-v2 (curve classes); compound: CCCN[C@H]1CCc2nc(N)sc2C1 [Pramipexole dihydrochloride monohydrate]
Response line: -2.1

Prompt line: Could you share what CC-v2 (curve classes) was measured for Cl.Clc1cc(Cl)c2c(c1)N=C1CCCCCN1C2 , tested on AChE in SH-SY5Y cells (Homo sapiens)?
Response line: -1.1

Prompt line: Please provide the recorded CC-v2 (curve classes) for CNC(=O)ON=C(C)SC , tested on AChE in SH-SY5Y cells (Homo sapiens).
Response line: -1.1

Prompt line: For the record COP(=O)(OC)O/C(C)=C/C(=O)N(C)C , what value of CC-v2 (curve classes) is listed for AChE in SH-SY5Y cells (Homo sapiens)?
Response line: -2.1

Prompt line: Lab note: need CC-v2 (curve classes) with AChE in SH-SY5Y cells (Homo sapiens) for entry CNC(=O)Oc1ccc(N(C)C)c(C)c1 , please look it up.
Response line: -1.1

Prompt line: Notebook: pull reported CC-v2 (curve classes) for AChE in SH-SY5Y cells (Homo sapiens), entry COP(=S)(Oc1cc(Cl)c(Br)cc1Cl)c1ccccc1 (stereo not shown)
Response line: -2.1

Prompt line: Lab note: need CC-v2 (curve classes) for O=S(=O)([O-])SSS(=O)(=O)[O-].[K+].[K+] [Potassium tetrathionate] on AChE in SH-SY5Y cells (Homo sapiens), anyone have it?
Response line: -2.1

Data provenance is paper PMC8041433.
